Tested on: EW-12
protocol.text: SANGER: Inhibition of human EW-12 cell growth in a cell viability assay.
Type: functional, cell-based
pIC50: −log10 of the molar value.
measure: pIC50

compound_string=CCN(CC)CCNC(=O)c1c(C)[nH]c(/C=C2\C(=O)Nc3ccc(F)cc32)c1C meas_value="< 5.10"
compound_string=COc1cc(-c2nn([C@H]3CC[C@H](N4CCN(C(C)=O)CC4)CC3)c3ncnc(N)c23)ccc1NC(=O)c1cc2ccccc2n1C meas_value="< 5.29"

Lab note: next compound to report on.
pIC50 for "OCCCNc1cc(-c2ccnc(Nc3cccc(Cl)c3)n2)ccn1" ?
< 6.59

---

Test system: JVM-2
protocol.text: cells
Format: functional, cell-based, Homo sapiens
assay.setup: jvm-2
Description: SANGER: Inhibition of human JVM-2 cell growth in a cell viability assay.
measure: IC50
Lab note: write values as number then unit, every time.

Could you share what IC50 was measured for "CISPLATIN" , tested on JVM-2?;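 also: growth inhibition of JVM-2 cells determined by a cell viability assay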
568 µM

---

System: Calu-3
protocol.text: cells
Format: functional, cell-based, Homo sapiens
assay.setup: Homo sapiens, Calu-3
Description: SANGER: Inhibition of human Calu-3 cell growth in a cell viability assay.
pIC50: −log10 of the molar value.
Catalogue of pIC50 readings, one per entry.

compound="C=C(c1ccc(C(=O)O)cc1)c1cc2c(cc1C)C(C)(C)CCC2(C)C [BEXAROTENE]" meas_value="< 5.10"
compound="CS(=O)(=O)c1ccc(C(=O)Nc2ccc(Cl)c(-c3ccccn3)c2)c(Cl)c1 [VISMODEGIB]" meas_value="< 5.00"
compound="CC1(C)CNc2cc(NC(=O)c3cccnc3NCc3ccncc3)ccc21 [MOTESANIB]" meas_value="< 5.70"

Param readout= pIC50; system= Calu-3; entry= "COc1cc2c(Nc3ccc(NC(=O)c4ccccc4)cc3)ncnc2cc1OCCCN1CCOCC1" ; returns value.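 Also: growth inhibition of human Calu-3 cells, determined with a cell viability assay.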
< 5.40

---

Tested on: L-540;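 also: growth inhibition of the human L-540 cell line, read out with a viability assay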
protocol.text: cells
Format: functional, cell-based, Homo sapiens
assay.setup: Homo sapiens, L-540
Description: SANGER: Inhibition of human L-540 cell growth in a cell viability assay.
pIC50: −log10 of the molar value. Counter-ions that a name gives are not always drawn.
measure: pIC50

Examples with answers:
compound="COC1=CC(c2cc3ccccc3[nH]2)=N/C1=C\\c1[nH]c(C)cc1C [OBATOCLAX MESYLATE]" measure=pIC50 meas_value=6.67
compound=C=C(c1ccc(C(=O)O)cc1)c1cc2c(cc1C)C(C)(C)CCC2(C)C measure=pIC50 meas_value="< 5.10"
compound=C#Cc1cccc(Nc2ncnc3cc(OCCOC)c(OCCOC)cc23)c1 measure=pIC50 meas_value="< 5.70"
compound=CC(=O)O[C@H]1C(=O)[C@@]2(C)[C@H]([C@H](OC(=O)c3ccccc3)[C@]3(O)C[C@H](OC(=O)[C@H](O)[C@@H](NC(=O)c4ccccc4)c4ccccc4)C(C)=C1C3(C)C)[C@]1(OC(C)=O)CO[C@@H]1C[C@@H]2O measure=pIC50 meas_value=7.33
compound=Cc1cc([N+](=O)[O-])ccc1NS(=O)(=O)c1cc(Cl)ccc1Cl measure=pIC50 meas_value=5.02
compound=Cc1ccc(-c2c(C(=O)CCl)n(CCCO)c3ncnc(N)c23)cc1 measure=pIC50 meas_value="< 5.40"
compound=COc1cc(-c2nn([C@H]3CC[C@H](N4CCN(C(C)=O)CC4)CC3)c3ncnc(N)c23)ccc1NC(=O)c1cc2ccccc2n1C measure=pIC50 meas_value="< 5.29"
compound=Oc1ccc2ccccc2c1SSc1c(O)ccc2ccccc12 measure=pIC50 meas_value="< 4.49"

Continue with the compound presented below.
Quick check: pIC50 on L-540, item "CCN(CC)CCNC(=O)c1c(C)[nH]c(/C=C2\C(=O)Nc3ccc(F)cc32)c1C" ?
< 5.10

---

Tested on: JIYOYE
protocol.text: cells
Assay type: functional, cell-based, Homo sapiens
assay.setup: Homo sapiens, JIYOYE
Description: SANGER: Inhibition of human JiyoyeP-2003 cell growth in a cell viability assay.
Cut-off 0.1 µM on IC50: below means T, at or above means F.

# TODO verify IC50 < 0.1 µM strictly for this compound: "N#Cc1c(O)c2c(-c3ccc(-c4ccccc4O)cc3)csc2[nH]c1=O"
T

Hello, I'm reviewing records and need to know if IC50 of O=C(O)c1ccc(-c2c[nH]c3ncc(-c4ccccc4)cc23)cc1C1CCCC1 [GSK-650394] is below 0.1 µM. Could you check?
F

---

Tested on: TGBC1TKB
protocol.text: cells
Assay type: functional, cell-based, Homo sapiens
assay.setup: Homo sapiens, TGBC1TKB
Description: SANGER: Inhibition of human TGBC1TKB cell growth in a cell viability assay.
pIC50: −log10 of the molar value.
# Lookup of reported pIC50 keyed by entry

Give the reported pIC50 for "COc1cc(N2CCN(C)CC2)ccc1Nc1ncc2c(n1)N(C)c1ccccc1C(=O)N2C" (system: TGBC1TKB).
< 5.10

Request - read-out pIC50 | tested on TGBC1TKB | compound "OCCCNc1cc(-c2ccnc(Nc3cccc(Cl)c3)n2)ccn1"
7.63

Return pIC50 measured with TGBC1TKB given this compound: CN(C)C(=N)NC(=N)N [METFORMIN]
< 1.70

API: value(readout= pIC50, system= TGBC1TKB, query= "Cc1cc([N+](=O)[O-])ccc1NS(=O)(=O)c1cc(Cl)ccc1Cl" )
5.08

API: value(readout= pIC50, system= TGBC1TKB, query= Nc1cccc2c1CN(C1CCC(=O)NC1=O)C2=O (centres undefined) [LENALIDOMIDE] );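 also: growth inhibition of TGBC1TKB cells, read out by a cell viability assay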
< 5.30

# returns recorded pIC50 (system: TGBC1TKB) for "N#Cc1c(O)c2c(-c3ccc(-c4ccccc4O)cc3)csc2[nH]c1=O"
< 5.99

---

Listing of recorded pIC50 by entry.
System: SW780;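 also: growth inhibition of the cells, read out with a cell viability assay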
protocol.text: cells
Assay type: functional, cell-based, Homo sapiens
assay.setup: Homo sapiens, SW780
Description: SANGER: Inhibition of human SW780 cell growth in a cell viability assay.
pIC50: −log10 of the molar value.

Please review the following examples before continuing.
compound="Nc1cccc2c1CN(C1CCC(=O)NC1=O)C2=O (stereo not drawn) [LENALIDOMIDE]" measure=pIC50 meas_value="< 5.30"
compound="CN(C)C(=N)NC(=N)N [METFORMIN]" measure=pIC50 meas_value=1.91
compound="Nc1ccn([C@@H]2O[C@H](CO)[C@@H](O)C2(F)F)c(=O)n1 [GEMCITABINE]" measure=pIC50 meas_value="< 5.99"
compound="CS(=O)(=O)c1ccc(C(=O)Nc2ccc(Cl)c(-c3ccccn3)c2)c(Cl)c1 [VISMODEGIB]" measure=pIC50 meas_value="< 5.00"
compound=Cc1cc([N+](=O)[O-])ccc1NS(=O)(=O)c1cc(Cl)ccc1Cl measure=pIC50 meas_value=5.21
compound="Cn1cnc2c(F)c(Nc3ccc(Br)cc3Cl)c(C(=O)NOCCO)cc21 [SELUMETINIB]" measure=pIC50 meas_value=6.18
compound=Oc1ccc2ccccc2c1SSc1c(O)ccc2ccccc12 measure=pIC50 meas_value="< 4.49"

# context switch: different compound, same pIC50
Reported pIC50 for SW780, given CCC/C=C/C=C/C(=O)O[C@H]1/C(=C/C(=O)OC)C[C@H]2C[C@H]([C@@H](C)O)OC(=O)C[C@H](O)C[C@@H]3C[C@H](OC(C)=O)C(C)(C)[C@](O)(C[C@@H]4C/C(=C/C(=O)OC)C[C@H](/C=C/C(C)(C)[C@]1(O)O2)O4)O3 [BRYOSTATIN 1] ?
< 8.10

---

Test system: TT
protocol.text: cells
Assay type: functional, cell-based, Homo sapiens
assay.setup: Homo sapiens, TT
Description: SANGER: Inhibition of human TT cell growth in a cell viability assay.
Counter-ions that a name gives are not always drawn.
measure: IC50

Solved entries (count: 2):
compound="COC1=CC(c2cc3ccccc3[nH]2)=N/C1=C\\c1[nH]c(C)cc1C [OBATOCLAX MESYLATE]" meas_value="> 16 µM"
compound=C=C(c1ccc(C(=O)O)cc1)c1cc2c(cc1C)C(C)(C)CCC2(C)C meas_value="> 8 µM"

Consider now this further compound.
Quick check: IC50 of "CCC/C=C/C=C/C(=O)O[C@H]1/C(=C/C(=O)OC)C[C@H]2C[C@H]([C@@H](C)O)OC(=O)C[C@H](O)C[C@@H]3C[C@H](OC(C)=O)C(C)(C)[C@](O)(C[C@@H]4C/C(=C/C(=O)OC)C[C@H](/C=C/C(C)(C)[C@]1(O)O2)O4)O3" ?
> 0.008 µM

---

System: CMK;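 also: growth inhibition of CMK cells, read out as cell viability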
protocol.text: cells
Assay type: functional, cell-based, Homo sapiens
assay.setup: cmk
Description: SANGER: Inhibition of human CMK cell growth in a cell viability assay.
measure: IC50 (µM)
Report the figure in µM without appending any unit label.

Could you tell me which IC50 is on file for "BLEOMYCIN" ?
14.8

---

Listed molecules paired with reported IC50
System: PF-382
protocol.text: cells
Type: functional, cell-based, Homo sapiens
assay.setup: Homo sapiens, PF-382
Description: SANGER: Inhibition of human PF-382 cell growth in a cell viability assay.

Past entries and their recorded results:
molecule=CCC/C=C/C=C/C(=O)O[C@H]1/C(=C/C(=O)OC)C[C@H]2C[C@H]([C@@H](C)O)OC(=O)C[C@H](O)C[C@@H]3C[C@H](OC(C)=O)C(C)(C)[C@](O)(C[C@@H]4C/C(=C/C(=O)OC)C[C@H](/C=C/C(C)(C)[C@]1(O)O2)O4)O3 measure=IC50 meas_value="> 0.008 µM"
molecule=OCCCNc1cc(-c2ccnc(Nc3cccc(Cl)c3)n2)ccn1 measure=IC50 meas_value="0.104 µM"
molecule=COc1cc(N2CCN(C)CC2)ccc1Nc1ncc2c(n1)N(C)c1ccccc1C(=O)N2C measure=IC50 meas_value="4.94 µM"
molecule=C#Cc1cccc(Nc2ncnc3cc(OCCOC)c(OCCOC)cc23)c1 measure=IC50 meas_value="> 2 µM"
molecule="COc1cc2ncn(-c3cc(OCc4ccccc4S(C)(=O)=O)c(C#N)s3)c2cc1OC [GSK-319347A]" measure=IC50 meas_value="> 5 µM"

Value lookup for IC50; key = "COc1cc(-c2nn([C@H]3CC[C@H](N4CCN(C(C)=O)CC4)CC3)c3ncnc(N)c23)ccc1NC(=O)c1cc2ccccc2n1C"
> 5.12 µM

Where these numbers come from: ChEMBL document CHEMBL1201861
